system: NCI-N87; assay: Inhibition of proliferation of cells NCI-N87 (CelltiterGlo, 72 h); type: cell-based; conditions: NCI-N87 cells, 72 h, CTG; read-out: IC50 (nM), antiproliferative activity on cells NCI-N87
Task for the reader: assign each of the following molecules its reported IC50.

State IC50 on NCI-N87. Entry: CC[C@@]1(O)C(=O)OCc2c1cc1n(c2=O)Cc2c-1nc1cc(F)c(C3CC3)c3c1c2[C@@H](NC(=O)[C@@H](O)C1CC1)CCC3
9 nM

Enter IC50 (test system NCI-N87) for CC[C@@]1(O)C(=O)OCc2c1cc1n(c2=O)Cc2c-1nc1cc(F)c(C3CC3)c3c1c2[C@@H](NC(=O)C[C@H](O)C1CC1)CC3
6 nM

Name the value of IC50 reported for CC[C@@]1(O)C(=O)OCc2c1cc1n(c2=O)Cc2c-1nc1cc(F)c(C3CC3)c3c1c2[C@@H](NC(=O)[C@H](O)C1CC1)CCC3 when tested on NCI-N87.
8 nM

---

What AUC(0-inf) was measured for each of the following?
assay: Pharmacokinetic test in SD rats; details: male, Sprague-Dawley (SD), rat, in vivo, iv, 2 mg/kg
Report as a plain number; the unit ng·h/mL is understood.

Tell us which AUC(0-inf) value is on record for CC[C@@]1(O)C(=O)OCc2c1cc1n(c2=O)Cc2c-1nc1cc(F)c(C)c3c1c2[C@@H](NC(=O)[C@@H](O)C1CC1)CCC3
465

State its AUC(0-inf): CC[C@@]1(O)C(=O)OCc2c1cc1n(c2=O)Cc2c-1nc1cc(F)c(C3CC3)c3c1c2C(NC(=O)C[C@@H](C)O)CC3 (single isomer, unassigned)
2730

Return reported AUC(0-inf). Input compound: CC[C@@]1(O)C(=O)OCc2c1cc1n(c2=O)Cc2c-1nc1cc(F)c(C)c3c1c2C(NC(=O)C[C@@H](C)O)CCC3 (single isomer, unassigned)
318

---

Assign Vd to each entry below.
experiment: Pharmacokinetic test in SD rats; details: male, Sprague-Dawley (SD), rat, in vivo, iv, 2 mg/kg
The reply should be a number in L/kg, with the unit left off.

Determine its reported Vd: CC[C@@]1(O)C(=O)OCc2c1cc1n(c2=O)Cc2c-1nc1cc(F)c(C3CC3)c3c1c2C(NC(=O)C[C@@H](C)O)CC3 (single isomer, unassigned) [Compound 17-2]
1.4

Complete the entry with Vd for CC[C@@]1(O)C(=O)OCc2c1cc1n(c2=O)Cc2c-1nc1cc(F)c(C)c3c1c2C(NC(=O)C[C@@H](C)O)CCC3 (single isomer, unassigned) [Compound 6-2]
2.93

Indicate the recorded Vd value for this molecule: CC[C@@]1(O)C(=O)OCc2c1cc1n(c2=O)Cc2c-1nc1cc(F)c(C)c3c1c2[C@@H](NC(=O)[C@@H](O)C1CC1)CCC3 [Compound 11-2]
3.01

---

biological target: CYP3A4 (Homo sapiens); construct: from tissue; host or cells: human liver microsomes; assay: Inhibition on human hepatomicrosomes CYP3A4; assay type: in vitro ADME; conditions: read-out: 3A4T (IC50 μM); human hepatomicrosomes, substrate testosterone
Sequence (P08684 whole entry): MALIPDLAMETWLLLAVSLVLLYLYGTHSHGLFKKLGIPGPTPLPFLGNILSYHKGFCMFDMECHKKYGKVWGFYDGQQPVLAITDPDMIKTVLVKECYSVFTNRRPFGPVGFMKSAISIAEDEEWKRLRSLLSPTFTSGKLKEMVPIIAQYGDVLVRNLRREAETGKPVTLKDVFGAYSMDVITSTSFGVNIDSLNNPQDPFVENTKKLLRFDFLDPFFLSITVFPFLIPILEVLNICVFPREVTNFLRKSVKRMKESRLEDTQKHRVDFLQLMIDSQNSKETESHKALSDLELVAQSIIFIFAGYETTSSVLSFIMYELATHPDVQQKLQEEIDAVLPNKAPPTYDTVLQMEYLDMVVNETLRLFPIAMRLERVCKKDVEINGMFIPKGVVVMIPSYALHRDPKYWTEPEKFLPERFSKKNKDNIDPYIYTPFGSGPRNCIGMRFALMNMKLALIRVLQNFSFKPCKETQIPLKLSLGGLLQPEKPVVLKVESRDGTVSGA
Endpoint: IC50

Name the recorded IC50 of the item CC[C@@]1(O)C(=O)OCc2c1cc1n(c2=O)Cc2c-1nc1cc(F)c(C)c3c1c2[C@@H](NC(=O)[C@@H](O)C1CC1)CCC3 in your answer.
> 30 µM
